System: LXRa:RXRa (NR concentration 270 nM, RXRa partner concentration 90 nM)
protocol_description: PBM binding z-score (relative to random genomic background probes); higher = stronger binding; sequences stand for … in GC…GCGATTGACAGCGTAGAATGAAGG
readout_type: PBM binding z-score
Numbers only.

For each of the sequences below, note its PBM binding z-score.
1. TCTCGGAGGACGCGAAGGTCAGAGCTTTCCAGAG
2. CCTAGCAGGCCAGCGTCACTCAAGCATTTCGCTT
3. CCTTACGGGTCACGAGGTAATAGCACGACGAGCG

[A]
1: 0.815; 2: -0.323; 3: 4.16

For each of the sequences below, note its PBM binding z-score.
1. CTTGCTAGGTCAATGGTCAGCTAAAGCAGCTCGC
2. CCGACTGGGGCAGAAAGGTAACCATACCATCCGG
3. CGTCCAAGGTCAAGGTCAGTGAGAGAGACTCGAA
4. CGAACTAGGTCATCCAGGCCAGTGAATACATTGA
5. CTTATTAGTTGACCATAAGGGCAACCGAAGCTCG
6. TCTTGTAGATCATAGGTTAAGAAAGCCGAAGCCT

[A]
[2.77, -0.447, 5.63, 2.58, 0.356, 0.999]

###

System: PPARg:RXRa 90nM:30nM, anti-RXR (NR concentration 90 nM, RXRa partner concentration 30 nM)
protocol_description: PBM binding z-score (relative to random genomic background probes); higher = stronger binding; sequences stand for … in GC…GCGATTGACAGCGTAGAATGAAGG
readout_type: PBM binding z-score
Answers are plain numbers.

Here is how some sequences turned out for PBM binding z-score.
> print(dat)
                      record.sequence                     target.or.test.system  endpoint.result
1  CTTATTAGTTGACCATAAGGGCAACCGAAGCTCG  PPARg:RXRa 90nM:30nM, anti-RXR (NR concentration 90 nM, RXRa partner concentration 30 nM)            0.259
2  AGAATGAGGTTATTAAGATTAGGGAATTGCGGTC  PPARg:RXRa 90nM:30nM, anti-RXR (NR concentration 90 nM, RXRa partner concentration 30 nM)             1.37
3  CCGACTGGGGCAGAAAGGTTACCCTACCATCCGG  PPARg:RXRa 90nM:30nM, anti-RXR (NR concentration 90 nM, RXRa partner concentration 30 nM)             1.78

For each of the sequences below, note its PBM binding z-score.
1. GATACAGGGTCAGATAGAGGCCAGAGTATGGAAA
2. GTACCAAGGTGAATAGGTCATTGATGAGTAGGCG
3. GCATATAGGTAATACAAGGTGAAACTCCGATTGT
4. ACAGACAGGTGATGAAGATAACTCAGGCTATCAT

[A]
1. 2.09
2. 2.85
3. 0.842
4. 0.0893

[Q] Please give the measured PBM binding z-score for this sequence: TTACCAAGCTGAAGGTCGTTGATCCCTCTGTAGA
[A] 1.8

###

Assign PBM binding z-score to each entry below.
System: RARg:RXRa (NR concentration 270 nM, RXRa partner concentration 90 nM)
protocol_description: PBM binding z-score (relative to random genomic background probes); higher = stronger binding; sequences stand for … in GC…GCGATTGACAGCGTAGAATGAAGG
Numbers only.

Here is how some sequences turned out for PBM binding z-score.
> print(dat)
                      record.sequence  endpoint.result
1  ATACCAAGGTGATCGTGAGGTCTTTGATACTAAC            0.797
2  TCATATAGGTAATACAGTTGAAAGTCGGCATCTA            0.792
3  ACTATTAGTTTAGACGAGGGCAACCGATAGGTTG             0.78

For the next question, use this sequence.
[Q] Please give the measured PBM binding z-score for this sequence: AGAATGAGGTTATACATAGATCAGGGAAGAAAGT
[A] 2.03

###

System: RARb homodimer (NR concentration 270 nM)
protocol_description: PBM binding z-score (relative to random genomic background probes); higher = stronger binding; sequences stand for … in GC…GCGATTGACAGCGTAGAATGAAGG
readout_type: PBM binding z-score
One number for each entry.

Here is how some sequences turned out for PBM binding z-score.
> print(dat)
                      record.sequence  endpoint.result
1  CCTTCTAGGTCAATGGTCAGCTAAAGCAGCTCGC             2.97
2  ATCGAAAGGTCGAGGTGAGCATAGAGAAAGGGAA             2.98
3  TAGCGTAGGTCATGCGGGCCAGTATAGTGTCGGC             2.91
4  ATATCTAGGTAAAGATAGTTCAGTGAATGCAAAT            0.985

For the next question, use this sequence.
[Q] Please give the measured PBM binding z-score for this sequence: TAGCCTAGGTCATGCGGGCGAGTATAGTGTCGGC
[A] 2.94

###

System: LXRb homodimer (NR concentration 270 nM)
protocol_description: PBM binding z-score (relative to random genomic background probes); higher = stronger binding; sequences stand for … in GC…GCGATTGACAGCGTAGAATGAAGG
readout_type: PBM binding z-score
Answers are plain numbers.

Here is how some sequences turned out for PBM binding z-score.
> print(dat)
                      record.sequence  endpoint.result
1  CTCGAAAGGTCGTGCTCAGGGGAGTATACCAAAC            0.229
2  TCTATTCGTTGAAGGGCAACCGACGAGTCCGTTT            0.752
3  AGTATTAGTTGACTTAGGGCAACCGATACGACGC              0.3

For the next question, use this sequence.
[Q] Form: Entry = CGAACTAGGTCACAGAGGTCAAAGTCCGTGCGTA | System = LXRb homodimer (NR concentration 270 nM) | PBM binding z-score = ____
[A] 1.96

###

System: RXRa homodimer (NR concentration 180 nM)
protocol_description: PBM binding z-score (relative to random genomic background probes); higher = stronger binding; sequences stand for … in GC…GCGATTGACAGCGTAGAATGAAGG
Assign PBM binding z-score to each entry below.
Numbers only.

Here is how some sequences turned out for PBM binding z-score.
> print(dat)
                      record.sequence  endpoint.result
1  CCTACTGGGCCTTCAGGTCATTGATATCAACGTT            0.791
2  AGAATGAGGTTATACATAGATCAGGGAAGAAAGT             2.42
3  ACAGACAGGTGAGTGAAGGTAACCCAGCTGGACG            0.562
4  TAGCCTAGGTCTTGCGGGCCAGTATAGTGTCGGC           -0.623
5  TGAATGAGGATAAAGATCAGGGAACGTGGCGTCG          -0.0726

For each of the sequences below, note its PBM binding z-score.
1. TCTTGTAGTTCAATAGAGGTTAAGAAAGTGCGCT
2. GCTATTATTTGAAAGGGCAACCGAATGATTCTCG
3. CCTATTAGTTGACCATAAGGGCAACCAAAGCTCG
4. GCTGCTAGGTCAGGTTGGCCAGCTAACGGGTACG
5. GCTAGTTGGTCATTAAAAGGTCACACACCGGTCG
6. CCTACTGGTCCAAAAAGGTCATTGATGCCGATAA
7. CCTACTGGGGCAGAAAGGTTACCATACCATCCGG

[A]
2.15
1.03
0.828
0.917
5.65
4.74
1.56

For each of the sequences below, note its PBM binding z-score.
1. ATCAAAAGGTCGTGAGGTGAGTATACAGAAAGGC
2. CGAACTAGGTCATCCAGGAGAGTGAATACATTGA
3. AATCGGAGGACAAAGGTCAGAGCTACGCCAGTGA

[A]
1: 5.51; 2: 2.84; 3: 4.98

For each of the sequences below, note its PBM binding z-score.
1. CAAACTAGGTCACAGAGGTCAGAGTCCGTGCGTA
2. ACCTCTAGGTAAAGTTCAGTGAAAGATCGATAGA

[A]
[6.43, 0.983]

For each of the sequences below, note its PBM binding z-score.
1. TCATATAGGGAAAAGGTGAAAGTCGGTGTGGTAA
2. CGTACTGGGCCAAAGGTCATTGATTCCAATGCTC

[A]
[1.93, 6.26]

For each of the sequences below, note its PBM binding z-score.
1. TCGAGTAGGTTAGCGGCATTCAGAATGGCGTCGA
2. CCTCGGAGGATAGAAGGTCAGAGCTGTCCGCTTT
3. AGAACGAAGGCACGCTGAGTTGATAGCAGAGTAG
4. TAGCCTAGGTCATGGGCCACTATACCACGCGAAC
5. ACAGACAGGTGATGAAGGTAATTCAGGCTATCAT

[A]
1. 0.000996
2. 1.52
3. 0.0315
4. 3.72
5. 0.13

For each of the sequences below, note its PBM binding z-score.
1. GCGACTGGGGCAAGGCAGGTTACCATAAGGTTGG
2. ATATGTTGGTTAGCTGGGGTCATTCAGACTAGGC
3. CAAATTAGGTCACCGGAAGGTCAAAGTCCGCATG
4. CGTCCAAGGTCATAGGACGTCAGTGAAGACAGAT
5. CAAACTAGGTGAAGGTCAAAGTCGGTTTGTGCCA

[A]
0.144
4.97
6.18
5.36
4.34

For each of the sequences below, note its PBM binding z-score.
1. TCATCTAGGTAAAAGGTGAAAGTCGGTGTGGTAA
2. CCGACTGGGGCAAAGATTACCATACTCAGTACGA
3. ATCTCTAGGTAACAAGTTCGGTGAAAGAGAGGAC
4. AGAATGAGGTTATACGTAGATGAGGGAAGAAAGT
5. CCTAGTGGGCCACGAAAGGTCATTGATTCAGTGA

[A]
1. 2.84
2. -0.0917
3. 0.444
4. 2.24
5. 5.09

For each of the sequences below, note its PBM binding z-score.
1. ATCGAAAGGTCGACGAGGTGGGTATACACCGTTT
2. CCTGCTAGGCCATGGTCAGCTAATCTACAGTATG

[A]
1. 4.17
2. -0.245
